Where do these numbers come from? They come from PubChem BioAssay AID2314.

- measurement-description: Cycloheximide Counterscreen for Small Molecule Inhibitors of Shiga Toxin; note: read at 38.3 µM for the half of the compounds with a filed dose; 0% is about no effect
- run-conditions: cell reporter, cycloheximide protein synthesis inhibition counterscreen; active compounds read high
The whole screen tested about 300,000 compounds, of which about 37,000 (12%) were called active. Only a selection was taken, and actives are over-represented in it overall.
recorded-endpoint: max response (%)

INSERT INTO results (compound, value_observed) VALUES
  ('O=C(CNC(=O)COc1ccccc1)NCCc1ccccn1', 5.88),
  ('O=C(NCCc1ccccn1)c1cccnc1Oc1ccc(Cl)cc1', 0.291),
  ('CCCc1ccc(-c2c(C)sc(NC(=O)c3ccnn3C)c2C#N)cc1', -3.68),
  ('CC(C)=CCCC1(C)C=Cc2c(ccc3c2[nH]c2cc(O)c(C)cc23)O1 (stereo not given)', 14),
  ('COC(=O)c1cc(S(=O)(=O)NCC2CCN(Cc3ccc(Cl)cc3)CC2)cn1C', -2.79),
  ('COc1ccc(C2Nc3ccccc3C(=O)N2c2ccc(F)cc2)cc1Cn1nnc2ccccc21 (stereo not given)', 2.31),
  ('CCCN1C2CCCC1CC(NC(=O)c1cccc(OC)c1)C2 (stereo not given)', 0.249),
  ('COc1ccccc1N1CCN(C(=O)c2ccc(NC3=NC4CS(=O)(=O)CC4S3)cc2)CC1 (stereo not given)', 6.59),
  ('CC(=O)N1c2ccc(S(=O)(=O)N3CCC(C(=O)NC4CCCCC4C)CC3)cc2CC1C (stereo not given)', 4.46),
  ('O=C(NCCc1ccccn1)c1ccc(COc2ccccc2)o1', 28.1);

###

- measurement-description: Cycloheximide Counterscreen for Small Molecule Inhibitors of Shiga Toxin; note: read at 38.3 µM for the half of the compounds with a filed dose; 0% is about no effect
- run-conditions: cell reporter, cycloheximide protein synthesis inhibition counterscreen
In all, about 300,000 compounds went through this assay and about 37,000 (12%) were called active. No stated cut-off is given here; in the data, active means max response mostly above about 13% (no sharp cut-off); inactive means mostly below about 14%. This excerpt belongs to a sample that is enriched for actives.
Possible outcomes: active, inactive

INSERT INTO assay_data (compound, cat) VALUES
  ('O=C(Nc1nc2cc3c(cc2s1)OCCO3)c1cccc(S(=O)(=O)N2CCOCC2)c1', 'inactive'),
  ('CCN(CC(=O)NCC(=O)Nc1cccc(C)c1C)Cc1ccccc1', 'inactive'),
  ('O=S(=O)(NCCCCCCNS(=O)(=O)c1c(F)cccc1F)c1ccc2c(c1)OCCO2', 'inactive'),
  ('CN(C)CCCN(C(=O)c1ccc(S(=O)(=O)N2CCCCCC2)cc1)c1nc2ccc(Br)cc2s1', 'active'),
  ('Cc1ccc(C(=O)NNC(=O)c2cc3cc4ccccc4nc3s2)cc1', 'inactive'),
  ('C=CCc1cc(C)ccc1OCCCn1ccnc1', 'inactive'),
  ('CCCCN(CC)C(=S)Nc1ccc2nc3n(c(=O)c2c1)CCCCC3', 'inactive'),
  ('CCN(CC)CCN(C(=O)c1ccc(N2C(=O)CCC2=O)cc1)c1nc2cc3c(cc2s1)OCO3', 'inactive'),
  ('Clc1c(OCCCn2ccnc2)ccc2ccccc12', 'active'),
  ('Cc1cccc(CSc2nnc(Cn3c(=O)sc4ccccc43)n2C)c1', 'inactive'),
  ('COC(=O)c1ccc(-c2noc(CN(Cc3ccccn3)CC3CCCO3)n2)cc1 (configuration not stated)', 'inactive'),
  ('CCN1CC(CN(C)Cc2nc(-c3ccc(Cl)cc3)no2)CC1=O (configuration not stated)', 'inactive'),
  ('CC(C)Oc1c(Br)cc(Br)cc1/C=N/NC(N)=S', 'inactive'),
  ('O=C(COc1ccccc1[N+](=O)[O-])NC1CC1', 'inactive'),
  ('CCOc1cc(C)ccc1OCc1nnc(SCC(=O)Nc2cccc(C(=O)O)c2)n1-c1ccccc1', 'inactive'),
  ('CCc1nc(SCC(=O)NNC(=O)c2ccc(C)cc2)c2ccccc2n1', 'inactive'),
  ('Oc1ccc(Cl)cc1C1C=C(c2ccc3c(c2)OCO3)NC(c2ccc(F)c(Br)c2)N1 (configuration not stated)', 'active'),
  ('CC(C)c1ccc(OCC(O)CN2CCN(c3ccccn3)CC2)cc1 (configuration not stated)', 'inactive'),
  ('CCOc1ccc(C(C(=O)NCCOC)N(CCOC)C(=O)CCC(=O)Nc2ccccn2)cc1 (configuration not stated)', 'inactive'),
  ('COc1cccc2c(C)c(C(=O)O)[nH]c12', 'active'),
  ('Cc1ccc(C(=O)NNc2ncnc3ccccc23)cc1', 'active'),
  ('COc1cccc2cc(-c3cc(=O)oc4cc(C)c(O)cc34)oc12', 'inactive');

###

- measurement-description: Cycloheximide Counterscreen for Small Molecule Inhibitors of Shiga Toxin; note: read at 38.3 µM for the half of the compounds with a filed dose; 0% is about no effect
- run-conditions: cell reporter, cycloheximide protein synthesis inhibition counterscreen
Hit rate of the full screen: of about 300,000 compounds, about 37,000 (12%) were called active. Rule as the data show it: active = max response mostly above about 13% (no sharp cut-off); inactive = mostly below about 14%. Shown is part of a subset that was picked to be rich in actives.
Outcomes: active, inactive

INSERT INTO measurements (compound, cat) VALUES
  ('COc1ccc(NC(=O)C(=O)NCC(=O)Nc2cccc(C(F)(F)F)c2)cc1', 'inactive'),
  ('COc1ccc(NC(=O)CC(NC(C)c2ccccc2)C(=O)O)cc1 (stereo unspecified)', 'inactive'),
  ('Cc1n[nH]c(=O)n1-c1ccc(Oc2ccccc2)cc1', 'active'),
  ('O=C(Nc1nc2ccccc2s1)c1ccc2c(c1)OCO2', 'active'),
  ('CC(C)c1nnc(NC(=O)CCC(=O)N2CCN(c3cccc(Cl)c3)CC2)s1', 'inactive'),
  ('Cc1n[nH]c(=O)n1-c1ccc(C(C)C)cc1', 'inactive'),
  ('Cn1nnnc1SCC(=O)Nc1nc2ccccc2s1', 'active'),
  ('O=C(O)CCc1cccnc1', 'inactive'),
  ('CNc1ccc(SC#N)cc1', 'inactive'),
  ('COC(=O)C1=CN(Cc2ccc(OC)c(OC)c2)C=C(C(=O)OC)C1c1cccs1', 'inactive'),
  ('O=C(O)CC(CC(=O)N1CCOCC1)c1ccccc1 (stereo unspecified)', 'inactive'),
  ('O=C(c1ccco1)N1CCN(c2cccc(Cl)c2)CC1', 'active'),
  ('CC(OC(=O)c1ccccc1OCc1ccc(Cl)cc1)C(N)=O (stereo unspecified)', 'inactive'),
  ('O=C(OCC(=O)N1CCN(C(=O)c2ccco2)CC1)c1ccccc1Cc1ccccc1', 'inactive'),
  ('O=C(Nc1ccc(C(=O)N2CCCCC2)cc1)c1cccc([N+](=O)[O-])c1', 'inactive'),
  ('COc1ccc(C(CC(=O)Nc2ccc(C)cc2)NC(=O)C(F)(F)F)cc1 (stereo unspecified)', 'active'),
  ('CCCn1c(NC(=O)C23CC4CC(CC(O)(C4)C2)C3)nc2ccccc21', 'inactive'),
  ('O=C1CS(=O)CN1c1ccc(Oc2ccccc2)cc1 (stereo unspecified)', 'inactive'),
  ('CCNC(=O)N1CCCC(C(=O)c2ccc(-c3ccccc3)cc2)C1 (stereo unspecified)', 'active'),
  ('O=C(Nc1ccc2c(c1)OCO2)c1ccc(N2C(=O)c3ccccc3C2=O)cc1', 'inactive'),
  ('Cc1ccc(/C(N)=N/OC(=O)COc2ccc(Cl)c(C)c2)cc1', 'inactive'),
  ('CCOC(=O)CSc1nc(N2CCOCC2)c2c(c1C#N)CC(C(C)C)OC2 (stereo unspecified)', 'inactive'),
  ('CN(CCO)S(=O)(=O)c1ccc2c(c1)C(=O)c1cc(S(=O)(=O)N(C)CCO)ccc1-2', 'inactive'),
  ('CC(=O)OC(C(=O)NCCc1ccccc1)c1cccnc1 (stereo unspecified)', 'inactive'),
  ('CS(=O)(=O)N(CC(=O)N1CCN(c2cccc(Cl)c2)CC1)c1ccccc1', 'inactive'),
  ('COC(=O)c1ccccc1NC(=O)CSc1nnnn1C', 'inactive'),
  ('O=c1/c(=C/c2ccc(CNS(=O)(=O)c3ccccc3)o2)sc2n1CCN=2', 'inactive'),
  ('O=C(Nc1ccc(NC(=O)c2ccco2)c(Cl)c1)c1cccc([N+](=O)[O-])c1', 'inactive'),
  ('CCN(CC)C(=O)CC1(c2ccccc2OC)CCOC(C(C)C)C1 (stereo unspecified)', 'inactive'),
  ('O=C(c1ccco1)N1CCN(C(=O)C2c3ccccc3Oc3ccccc32)CC1', 'active'),
  ('O=C(Nc1ccc(C2CC2(Cl)Cl)cc1)c1cccc([N+](=O)[O-])c1 (stereo unspecified)', 'active'),
  ('Nc1cccc(-c2cc(-c3ccccc3)nc(-c3cccc(N)c3)n2)c1', 'inactive'),
  ('CC(NC(=S)Nc1ccc(OC(F)F)cc1)c1ccc(F)cc1 (stereo unspecified)', 'inactive'),
  ('O=C(c1ccccc1)N1CCC(CC2CC(c3ccc(Cl)cc3)=NO2)(C(=O)NCC2CCCCC2)CC1 (stereo unspecified)', 'inactive'),
  ('O=C(c1cccc([N+](=O)[O-])c1)N1CCN(C(=O)c2ccco2)CC1', 'inactive'),
  ('O=C(OCC(=O)N1CCCC1)c1ccco1', 'inactive'),
  ('OCCC#Cc1ccc(CN2CCN(Cc3ccsc3)C(CCO)C2)cc1 (stereo unspecified)', 'inactive'),
  ('C=CCn1c(SCC(=O)Nc2nc3ccccc3s2)nnc1-c1ccccc1O', 'inactive'),
  ('Cc1ccc(CNC(=O)CCN2C(=O)[C@@H]3Cc4ccccc4CN3C2=O)cc1', 'inactive'),
  ('O=C(OCC(=O)N1CCN(C(=O)c2ccco2)CC1)c1cccc(O)c1', 'active'),
  ('CNc1nc(-c2ccccc2)cc(-c2ccccc2)n1', 'inactive'),
  ('Nc1nc(-c2ccccc2)cc(-c2ccccc2)n1', 'active'),
  ('COc1ccc(CC(=O)N2N=C(C)CC2(O)C(F)(F)F)cc1 (stereo unspecified)', 'inactive'),
  ('O=C(c1ccc(-c2ccccc2)cc1)C1CCCN(C(=O)c2cncs2)C1 (stereo unspecified)', 'inactive'),
  ('S=C(NNC(=S)NC1CC2C=CC1C2)NC1CC2C=CC1C2 (stereo unspecified)', 'inactive'),
  ('Cc1cc(C)c2nc(NC(=O)c3ccc4c(c3)OCO4)sc2c1', 'inactive');
